Value source: BigSolDB 2.1

Record form. Attribute: solubility (mole fraction). Fill in for each entry.
conditions: in ethanol, 288.15 K
Just the number.

Challenge: Suppose we examine the compound `NNC(=O)c1ccccc1O` ; what solubility (mole fraction) value has been reported?
Response given: 0.0115

Challenge: // lookup solubility (mole fraction) for `NNC(=O)c1ccccc1`
Response given: 0.0169

---

Could you please report measured solubility (mole fraction) for the items listed next?
conditions: in methanol, 298.15 K
Quick one: just the number, no unit, thanks!

Challenge: I'd like to know its solubility (mole fraction). The compound in question is `NNC(=O)c1ccccc1`
Response given: 0.0605

Challenge: Recorded solubility (mole fraction) of `NNC(=O)c1ccccc1O` , please.
Response given: 0.0198
